# assay method text: thallium flux inhibition in non-induced cells, primary screen, counter-screen for KCNK3 inhibitor project, cell-based, non-induced KCNK3 line, FluxOR thallium, triplicate (AID 651747);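 also: host cells are CHO cells without KCNK3 induction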;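 as to thallium flux ratio (lower = more inhibition): ratio is peak minus trough fluorescence over baseline then normalized to buffer controls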
# recorded conditions: non-induced KCNK3 parental cells, at 10 µM; stronger effect = lower value
Among all 2,400 compounds or so, about 950 (40%) were called active. Not all results are given here.
measured property: thallium flux ratio (lower = more inhibition)

molecule: CN(CCC(=O)Nc1cc(S(=O)(=O)N(C)C)ccc1Cl)CC(=O)Nc1ccc(F)cc1
assay value: 0.159 (active)
//
molecule: Oc1ccc(/C=N/Nc2nc(-c3ccccc3F)nc3ccccc23)c(O)c1
assay value: 0.143 (active)
//
molecule: O=C(Nc1cccc(S(=O)(=O)Nc2ccc(Cl)cc2)c1)c1ccc2c(c1)OCCO2
assay value: 0.136 (active)
//
molecule: CCOc1ccc(C2c3[nH]c4ccccc4c3CCN2Cc2cccn2-c2ncccn2)cc1 (stereo not given)
assay value: inactive

Form field thallium flux ratio (lower = more inhibition), entry CCCc1cc(C(=O)N2CCCC(CO)(CCCc3ccccc3)C2)n(C)n1 (stereo not given) : 0.152 (active)

Form field thallium flux ratio (lower = more inhibition), entry CCCCC(=O)Nc1ccccc1N1CCN(c2ccc(F)cc2)CC1 : inactive

Form field thallium flux ratio (lower = more inhibition), entry Cc1c(C(=O)N2CCCc3ccccc32)sc2nc(-c3ccccc3)cn12 : inactive

Form field thallium flux ratio (lower = more inhibition), entry Cc1ccc(NC(=O)c2cc([N+](=O)[O-])ccc2Cl)c(O)c1 : inactive

Form field thallium flux ratio (lower = more inhibition), entry CC[n+]1cc(C)ccc1/C=C/c1ccc(N(C)C)cc1 : 0.106 (active)

Form field thallium flux ratio (lower = more inhibition), entry FC(F)(F)c1cccc(-c2cc3ccccc3nc2N2CCCC2)c1 : 0.127 (active)
